Test System: Rap guanine nucleotide exchange factor 3 (Homo sapiens)
Experimental Details: Confirmatory qHTS for agonist of cAMP-regulated guanine nucleotide exchange factor 3 (EPAC1) (AID 1645881); further: nearly all actives have a fitted effect of over 75% in size;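 on activation: EPAC1 catalysed release of BODIPY-GDP from Rap1B seen as fluorescence loss; 100% = effect of cAMP agonist control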
Experimental Conditions: EPAC1 Rap1B BODIPY-GDP exchange fluorescence; series mostly up to 154 µM
Inconclusive results are not listed. The source made the active and inactive calls. The call rests on the fitted dose curve; in most records, active means well fitted activation curve with a large enough effect; inconclusive means small, poorly fitted or top-dose-only effect; inactive means no such curve, though single readings can be large or run the other way.
The categories you may choose from are 1 (yes) = active, 0 (no) = inactive

Sample answers from the record:
{"columns": ["Compound", "Group"],
 "data": [
  ["COc1ccc(OC)c(NC(=O)C(C)Oc2ccc(Br)cc2)c1 (configuration not stated)", "0 (no)"],
  ["Cc1cccc(C(=O)OCC(=O)c2ccc(CC(=O)N3CCOCC3)s2)c1C", "0 (no)"],
  ["COc1ccc(-c2nn3c(-c4cccc(C)c4)nnc3s2)cc1OC", "0 (no)"],
  ["Cc1nc(S/C(=C/c2ccc(-c3cc(Cl)ccc3C)o2)C(=O)O)n[nH]1", "0 (no)"]
]}

In: What call does the record list for O=C(Cc1ccc(Cl)cc1)N/N=C/c1ccc(O)c(O)c1 ?
Out: 0 (no)

In: Now the compound COc1ccc(Nc2nnc(-c3ccc(O)cc3)c3ccccc23)cc1
Out: 0 (no)

In: Now the compound C=CCNC(=O)c1oc2ccc(S(=O)(=O)N(CC)CC)cc2c1C
Out: 0 (no)

In: Now the compound Cc1ccn2c(=O)nc(SCC(=O)Nc3ccc4c(c3)OCO4)nc2c1
Out: 0 (no)

In: Now the compound CC(C)N1CCc2c(sc(NC(=O)c3ccc(S(=O)(=O)N4CCc5ccccc54)cc3)c2C(N)=O)C1
Out: 0 (no)

In: Now the compound COC(=O)CN1C(=S)N(c2ccc(OC)cc2)C(=O)/C1=C/c1ccc(N2CCOCC2)cc1
Out: 1 (yes)

In: Now the compound COc1cc(C2CC(=O)Oc3cc(C)c(Br)c(C)c32)cc(OC)c1OC (configuration not stated)
Out: 0 (no)

###

Test System: Glucocorticoid receptor (Homo sapiens) (UniProt P04150)
Sequence (P04150 whole entry, looked up): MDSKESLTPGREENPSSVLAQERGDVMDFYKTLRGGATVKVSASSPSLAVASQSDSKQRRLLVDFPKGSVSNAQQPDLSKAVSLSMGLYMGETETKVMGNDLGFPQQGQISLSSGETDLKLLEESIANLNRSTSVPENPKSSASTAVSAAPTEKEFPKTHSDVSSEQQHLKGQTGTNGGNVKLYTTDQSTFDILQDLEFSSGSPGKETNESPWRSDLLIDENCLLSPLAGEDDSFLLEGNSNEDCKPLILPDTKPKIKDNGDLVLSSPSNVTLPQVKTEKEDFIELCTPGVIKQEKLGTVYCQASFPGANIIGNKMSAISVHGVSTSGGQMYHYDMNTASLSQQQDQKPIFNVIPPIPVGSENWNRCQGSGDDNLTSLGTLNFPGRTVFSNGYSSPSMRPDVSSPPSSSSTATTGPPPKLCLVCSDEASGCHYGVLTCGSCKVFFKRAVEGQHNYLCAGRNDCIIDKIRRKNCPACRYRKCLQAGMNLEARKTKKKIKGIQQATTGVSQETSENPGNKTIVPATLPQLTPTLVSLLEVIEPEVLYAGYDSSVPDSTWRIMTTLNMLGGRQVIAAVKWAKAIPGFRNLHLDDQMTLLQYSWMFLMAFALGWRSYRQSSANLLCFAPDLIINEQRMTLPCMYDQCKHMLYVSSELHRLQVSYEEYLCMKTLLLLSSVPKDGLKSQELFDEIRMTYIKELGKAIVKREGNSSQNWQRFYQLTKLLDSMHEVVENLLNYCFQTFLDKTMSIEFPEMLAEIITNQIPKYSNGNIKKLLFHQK
Experimental Details: GR-GFP Redistribution (AID 450); further: potency means the concentration at half of the fitted maximal effect
Experimental Conditions: U2OS GR-GFP nuclear translocation, laser cytometry, 2 h
Experimental: NIH Molecular Libraries Screening Centers Network [MLSCN] NIH Chemical Genomics Center [NCGC] […] GR-GFP U2OS cells were maintained in DMEM with Glutamax and high glucose, 1% v/v penicillin-streptomycin, and 0.5 mg/mL Geneticin. […] The plates were read by the Acumen Explorer using a 1 x 8 um scan of the whole well area. PI fluorescence triggered the collection of PI and GFP signals. […]
The source made the active and inactive calls.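 Rule for the calls: active = compounds whose dose series gives a full or clear partial fitted curve of increased nuclear translocation; inconclusive = weak partial curve or effect only at the top dose; inactive = no dose-dependent translocation response.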
Reported Endpoint: Potency

{"columns": ["Chemical Structure", "Reported Value"],
 "data": [
  ["Cc1noc(C)c1-c1nc(N2CCN(C)CC2)c2ccccc2n1", "> 46 µM (inactive)"]
]}

Please look at the items below and tell me Potency for each one, in order.
1. CCNc1ncc2nc(-c3cccs3)c(=O)n(CCC#N)c2n1
2. COc1cccc(Cn2c(=O)c(CCc3ccccc3)nc3cnc(N4CCN(C)CC4)nc32)c1
3. COc1ccccc1CNc1ncncc1-c1ccccc1Cl
4. CCc1c(C)c(C#N)c2nc3ccccc3n2c1-n1nc(C)cc1C
5. Cn1c(=O)c(-c2ccc(Cl)cc2)nc2cncnc21
6. O=c1c(CCc2ccccc2)nc2cnc(N3CCNCC3)nc2n1Cc1cccs1

Out:
1. > 9.22 µM (inactive)
2. > 9.22 µM (inactive)
3. > 46 µM (inactive)
4. > 20.6 µM (inactive)
5. > 9.22 µM (inactive)
6. > 9.22 µM (inactive)
